- system: Discoidin domain-containing receptor 2 (Homo sapiens)
- Sequence (Q16832 whole entry): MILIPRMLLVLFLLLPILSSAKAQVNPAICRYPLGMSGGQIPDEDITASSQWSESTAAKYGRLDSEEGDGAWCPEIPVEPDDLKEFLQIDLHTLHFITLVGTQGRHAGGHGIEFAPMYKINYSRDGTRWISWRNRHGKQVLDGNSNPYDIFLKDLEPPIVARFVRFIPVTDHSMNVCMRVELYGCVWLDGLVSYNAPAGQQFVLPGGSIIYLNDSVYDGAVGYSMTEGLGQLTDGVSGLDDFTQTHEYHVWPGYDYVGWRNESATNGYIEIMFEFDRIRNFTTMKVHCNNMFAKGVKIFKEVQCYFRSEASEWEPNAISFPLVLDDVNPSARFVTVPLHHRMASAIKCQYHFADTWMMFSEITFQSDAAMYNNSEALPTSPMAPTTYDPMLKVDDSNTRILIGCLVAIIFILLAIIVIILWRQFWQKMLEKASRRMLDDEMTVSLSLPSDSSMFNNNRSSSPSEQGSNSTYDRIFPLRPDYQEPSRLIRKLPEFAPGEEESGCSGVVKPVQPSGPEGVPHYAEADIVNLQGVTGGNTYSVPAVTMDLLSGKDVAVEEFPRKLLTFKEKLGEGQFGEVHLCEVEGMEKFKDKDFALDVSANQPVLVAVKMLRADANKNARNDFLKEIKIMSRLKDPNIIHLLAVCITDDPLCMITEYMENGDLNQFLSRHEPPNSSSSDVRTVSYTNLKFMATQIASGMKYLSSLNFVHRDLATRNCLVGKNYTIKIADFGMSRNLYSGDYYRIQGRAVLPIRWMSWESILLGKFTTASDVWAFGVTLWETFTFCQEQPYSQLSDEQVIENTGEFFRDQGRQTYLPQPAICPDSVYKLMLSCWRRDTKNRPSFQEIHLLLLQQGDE
readout: IC50 (nM)
The answer is to be given in nM; state only the numeric part.

• O=C(NCc1cn(CC(=O)N2CCOCC2)c2ccc(F)cc12)Nc1ccc(F)cc1F = 450

Consider the additional compound presented here.
-- ask Could you tell me which IC50 is on file for O=C(NCc1cn(CC(=O)N2CCCCC2)c2ccc(F)cc12)Nc1ccc(F)cc1F ?
-- reply 1190

---

- system: NT-3 growth factor receptor (Homo sapiens)
- measurement-protocol: Inhibition of TRK-C (unknown origin) assessed as remaining activity at 1 uM using fluorescein-poly GAT as substrate in presence of ATP by TR-FRET assay relative to control
# note: boundary value 80% maps to no; Activity below it maps to yes

Please review the following examples before continuing.
• O=C(NCc1cn(CC(=O)N2CCOCC2)c2ccc(F)cc12)Nc1ccc(F)cc1F = no
• COc1ccc(NC(=O)NCc2cn(CC(=O)N3CCOCC3)c3ccc(F)cc23)cc1 = no
• O=C(NCc1cn(CC(=O)N2CCCC2)c2ccc(F)cc12)Nc1ccc(F)cc1F = yes
• COc1ccc2c(c1)c(CNC(=O)Nc1ccc(F)cc1F)cn2CC(=O)N1CCN(C)CC1 = yes
• COc1ccc(NC(=O)NCc2cn(CC(=O)N3CCN(C)CC3)c3ccc(F)cc23)cc1 = no

-- ask # strict comparison: is reported Activity < 80%? input = Cc1ccc(NC(=O)NCc2cn(CC(=O)N3CCOCC3)c3ccc(F)cc23)cc1
-- reply no

-- ask # strict comparison: is reported Activity < 80%? input = O=C(NCc1cn(CC(=O)N2CCCCC2)c2ccc(F)cc12)Nc1ccc(C(F)(F)F)cc1
-- reply no

-- ask # strict comparison: is reported Activity < 80%? input = COc1ccc(NC(=O)NCc2cn(CC(=O)N3CCCCC3)c3ccc(F)cc23)cc1
-- reply no
